# Tested on: CAKI-1
# assay.procedure: NCI-60 SRB screen;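 note: half-maximal inhibitory concentration read as cell viability unlike GI50 net growth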
# Type: cell-based, human
# experimental.setup: Homo sapiens; CAKI-1; five dose

compound	unit.annotation	IC50
N#CC1C(=O)NC(c2ccccc2[N+](=O)[O-])c2sc3c(F)cccc3c21 (stereo not shown)	nM	562

---

inhibition at 10 µM by entry:
# Tested on: SK-MEL-5
# assay.procedure: NCI-60 SRB screen
# Type: cell-based, human
# experimental.setup: Homo sapiens; SK-MEL-5; single dose 10^−5 M; read-out: Growth inhibition (%)

molecule	inhibition at 10 µM [%]
O=C1NC(c2ccccc2[N+](=O)[O-])c2sc3c(F)cccc3c2C1Cl (centres unmarked) [Compound 4c]	8.45
COc1ccc(C2NC(=O)C(Cl)c3c2sc2c(F)cccc32)c(OC)c1 (centres unmarked) [Compound 4a]	-1.74
O=C1NC(c2cccc([N+](=O)[O-])c2)c2sc3c(F)cccc3c2C1N1CCOCC1 (centres unmarked) [Compound 6b]	0.57
N#CC1C(=O)NC(c2cccc([N+](=O)[O-])c2)c2sc3c(F)cccc3c21 (centres unmarked) [Compound 5d]	4.83
O=C1C(=Cc2ccccc2[N+](=O)[O-])Sc2c(F)cccc21 [Compound 2c]	8.44
COc1ccc(C2NC(=O)C(C#N)c3c2sc2c(F)cccc32)cc1 (centres unmarked) [Compound 5b]	39.5
CCN1CCN(C2C(=O)NC(c3cccc([N+](=O)[O-])c3)c3sc4c(F)cccc4c32)CC1 (centres unmarked) [Compound 6a]	-1.71
O=C1NC(c2cccc([N+](=O)[O-])c2)c2sc3c(F)cccc3c2C1N1CCCCC1 (centres unmarked) [Compound 6c]	1.15

---

# System: CCRF-CEM
# assay.procedure: NCI-60 SRB screen;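 for pIC50: half-maximal inhibitory concentration read as cell viability unlike GI50 net growth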
# Format: cell-based
# experimental.setup: Homo sapiens, five dose
pIC50: −log10 of the molar value.
endpoint: pIC50

molecule	endpoint	meas.value
N#CC1C(=O)NC(c2ccccc2[N+](=O)[O-])c2sc3c(F)cccc3c21 (stereo not shown)	pIC50	4.43

---

# Tested on: HCC-2998
# assay.procedure: NCI-60 SRB screen
# Assay type: cell-based, human
# experimental.setup: Homo sapiens; HCC-2998; single dose 10^−5 M; read-out: Growth inhibition (%)

compound	target.desc	unit.annotation	inhibition at 10 µM
O=C1NC(c2cccc([N+](=O)[O-])c2)c2sc3c(F)cccc3c2C1Cl (centres unmarked) [Compound 4d]	HCC-2998	%	-15.9
COc1ccc(C2NC(=O)C(C#N)c3c2sc2c(F)cccc32)cc1 (centres unmarked) [Compound 5b]	HCC-2998	%	8.46
N#CC1C(=O)NC(c2cccc([N+](=O)[O-])c2)c2sc3c(F)cccc3c21 (centres unmarked) [Compound 5d]	HCC-2998	%	-14.2
COc1ccc(C2NC(=O)C(Cl)c3c2sc2c(F)cccc32)cc1 (centres unmarked) [Compound 4b]	HCC-2998	%	-6.39
COc1ccc(C=C2Sc3c(F)cccc3C2=O)c(OC)c1 [Compound 2a]	HCC-2998	%	-12.8
O=C1NC(c2cccc([N+](=O)[O-])c2)c2sc3c(F)cccc3c2C1N1CCCCC1 (centres unmarked) [Compound 6c]	HCC-2998	%	2.82
COc1ccc(C2NC(=O)C(C#N)c3c2sc2c(F)cccc32)c(OC)c1 (centres unmarked) [Compound 5a]	HCC-2998	%	11.7
CCN1CCN(C2C(=O)NC(c3cccc([N+](=O)[O-])c3)c3sc4c(F)cccc4c32)CC1 (centres unmarked) [Compound 6a]	HCC-2998	%	-18.1

---

// values below are reported inhibition at 10 µM
# Test system: HCT-116
# assay.procedure: NCI-60 SRB screen
# Format: cell-based, human
# experimental.setup: Homo sapiens; single dose 10^−5 M; HCT-116, Colon cancer; read-out: Growth inhibition (%)

compound	inhibition at 10 µM / %
O=[N+]([O-])c1cccc(C2NC3=C(Nc4ccccc4N3)c3c2sc2c(F)cccc32)c1 (stereo not drawn) [Compound 9]	-1.05
N#CC1=C(N2CCOCC2)NC(c2cccc([N+](=O)[O-])c2)c2sc3c(F)cccc3c21 (stereo not drawn) [Compound 8e]	8.86
O=[N+]([O-])c1cccc(C2NC(N3CCCCC3)=C(Cl)c3c2sc2c(F)cccc32)c1 (stereo not drawn) [Compound 8c]	1.95
N#CC1=C(Cl)NC(c2cccc([N+](=O)[O-])c2)c2sc3c(F)cccc3c21 (stereo not drawn) [Compound 7b]	11.7
N#CC1=C(Nc2ccccc2F)NC(c2cccc([N+](=O)[O-])c2)c2sc3c(F)cccc3c21 (stereo not drawn) [Compound 10]	3.44
CCN1CCN(C2=C(C#N)c3c(sc4c(F)cccc34)C(c3cccc([N+](=O)[O-])c3)N2)CC1 (stereo not drawn) [Compound 8d]	1.31
CCN1CCN(C2=C(Cl)c3c(sc4c(F)cccc34)C(c3cccc([N+](=O)[O-])c3)N2)CC1 (stereo not drawn) [Compound 8a]	15
O=[N+]([O-])c1cccc(C2NC(N3CCOCC3)=C(Cl)c3c2sc2c(F)cccc32)c1 (stereo not drawn) [Compound 8b]	25.3
N#CC1=C(N2CCCCC2)NC(c2cccc([N+](=O)[O-])c2)c2sc3c(F)cccc3c21 (stereo not drawn) [Compound 8f]	4.5

---

# System: LOX IMVI
# assay.procedure: NCI-60 SRB screen
# Format: cell-based, human
# experimental.setup: Homo sapiens, single dose 10^−5 M, read-out: Growth inhibition (%)
Items are presented alongside their recorded inhibition at 10 µM.

compound	inhibition at 10 µM
O=C1NC(c2cccc([N+](=O)[O-])c2)c2sc3c(F)cccc3c2C1N1CCOCC1 (stereo not shown)	-0.6%
N#CC1C(=O)NC(c2cccc([N+](=O)[O-])c2)c2sc3c(F)cccc3c21 (stereo not shown)	17.4%
CCN1CCN(C2C(=O)NC(c3cccc([N+](=O)[O-])c3)c3sc4c(F)cccc4c32)CC1 (stereo not shown)	-2.53%
O=[N+]([O-])c1cccc(C2NC(Cl)=C(Cl)c3c2sc2c(F)cccc32)c1 (stereo not shown)	1.24%

---

# Tested on: SF-539
# assay.procedure: NCI-60 SRB screen
# Format: cell-based, human
# experimental.setup: Homo sapiens; SF-539; single dose 10^−5 M; read-out: Growth inhibition (%)
Items are presented alongside their recorded inhibition at 10 µM.

compound	inhibition at 10 µM [%]
COc1ccc(C2NC(=O)C(Cl)c3c2sc2c(F)cccc32)cc1 (centres unmarked) [Compound 4b]	15.8
O=C1C(=Cc2ccccc2[N+](=O)[O-])Sc2c(F)cccc21 [Compound 2c]	3.65
COc1ccc(C=C2Sc3c(F)cccc3C2=O)c(OC)c1 [Compound 2a]	-0.64
O=C1NC(c2ccccc2[N+](=O)[O-])c2sc3c(F)cccc3c2C1Cl (centres unmarked) [Compound 4c]	3.36
COc1ccc(C2NC(=O)C(Cl)c3c2sc2c(F)cccc32)c(OC)c1 (centres unmarked) [Compound 4a]	3.36

---

# Tested on: CCRF-CEM
# assay.procedure: NCI-60 SRB screen
# Type: cell-based
# experimental.setup: Homo sapiens, single dose 10^−5 M, read-out: Growth inhibition (%)
# inhibition at 10 µM values compiled below

compound	unit.annotation	inhibition at 10 µM
COc1ccc(C2NC(=O)C(Cl)c3c2sc2c(F)cccc32)cc1 (stereo not shown)	%	-0.42
CCN1CCN(C2C(=O)NC(c3cccc([N+](=O)[O-])c3)c3sc4c(F)cccc4c32)CC1 (stereo not shown)	%	-2.46
O=C1NC(c2cccc([N+](=O)[O-])c2)c2sc3c(F)cccc3c2C1N1CCCCC1 (stereo not shown)	%	1.84
COc1ccc(C2NC(=O)C(C#N)c3c2sc2c(F)cccc32)cc1 (stereo not shown)	%	66
COc1ccc(C=C2Sc3c(F)cccc3C2=O)c(OC)c1	%	-5.14
COc1ccc(C2NC(=O)C(Cl)c3c2sc2c(F)cccc32)c(OC)c1 (stereo not shown)	%	-1.02
O=C1NC(c2ccccc2[N+](=O)[O-])c2sc3c(F)cccc3c2C1Cl (stereo not shown)	%	-0.04
